Lab note: pIC50 readings collected with Poly [ADP-ribose] polymerase 2 (Homo sapiens) for the following compounds.
Sequence (Q9UGN5 whole entry): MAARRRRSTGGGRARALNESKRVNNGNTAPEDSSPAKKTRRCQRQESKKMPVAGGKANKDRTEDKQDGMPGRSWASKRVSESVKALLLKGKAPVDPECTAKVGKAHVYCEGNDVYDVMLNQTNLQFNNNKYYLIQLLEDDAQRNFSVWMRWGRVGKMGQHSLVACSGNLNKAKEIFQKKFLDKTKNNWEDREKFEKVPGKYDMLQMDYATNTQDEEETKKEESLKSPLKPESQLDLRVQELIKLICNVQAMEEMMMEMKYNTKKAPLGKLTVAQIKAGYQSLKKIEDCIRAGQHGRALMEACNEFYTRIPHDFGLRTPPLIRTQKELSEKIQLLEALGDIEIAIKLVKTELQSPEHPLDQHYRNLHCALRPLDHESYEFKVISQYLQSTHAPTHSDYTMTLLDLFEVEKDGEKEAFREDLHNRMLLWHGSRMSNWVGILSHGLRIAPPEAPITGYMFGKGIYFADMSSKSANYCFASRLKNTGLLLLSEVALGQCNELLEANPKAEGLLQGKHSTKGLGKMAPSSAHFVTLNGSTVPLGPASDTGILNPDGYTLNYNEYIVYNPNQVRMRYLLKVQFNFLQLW
pIC50: −log10 of the molar value.

{"columns": ["test-smiles", "pIC50"],
 "data": [
  ["O=c1[nH]c(CCCN2CCN(c3ccccc3)CC2)nc2cccc(Cl)c12", 6.52],
  ["O=c1[nH]c(CCCN2CCC(c3ccccc3)CC2)nc2ccccc12", 6.22],
  ["O=c1[nH]c(CCCN2CCC(c3ccccc3)CC2)nc2c(Cl)cccc12", 6.21],
  ["N#Cc1ccc(C2CCN(CCCc3nc4c(Cl)cccc4c(=O)[nH]3)CC2)cc1", 7.06]
]}
